Item-by-item account of % Inhibition of SMAD7 mRNA
tested on: human SMAD7 mRNA; assay: Antisense inhibition of human SMAD7 mRNA expression in Hep3B cells by 5-10-5 MOE gapmers, single concentration, electroporation, RT-PCR (Example 1, Study 1 and 2); assay type: cell-based; conditions: electroporation with 15,000 nM antisense oligonucleotide (Study 2), 5-10-5 MOE gapmers targeting SEQ ID NO: 1 and 2
Strand notation (5' to 3'): a small letter for the sugar, then the base; units joined by * are phosphorothioate-linked, units joined directly phosphodiester-linked; [ ] holds rarer units or linkages, { } end groups; capitals alone tell only the bases. e = 2'-O-(2-methoxyethyl) (MOE); [5mC] = 5-methylcytosine; d = 2'-deoxy (DNA)
observable: % Inhibition of SMAD7 mRNA (%)

{"substance": "771888 (antisense eT*e[5mC]*eG*e[5mC]*e[5mC]*dA*dT*dG*dG*dA*dG*dA*dA*dT*dG*eT*eA*eA*eT*eT) [compound 771888]", "measurement-unit": "%", "recorded-value": 21}
{"substance": "771912 (antisense eA*eT*eA*eT*eT*d[5mC]*d[5mC]*dT*d[5mC]*dT*dG*d[5mC]*d[5mC]*dA*dA*eA*eG*eT*e[5mC]*e[5mC]) [compound 771912]", "measurement-unit": "%", "recorded-value": 44}
{"substance": "771347 (antisense eT*eG*eG*eG*e[5mC]*d[5mC]*dA*d[5mC]*dT*dG*dG*dT*dG*dT*dT*e[5mC]*eG*eA*e[5mC]*eG) [compound 771347]", "measurement-unit": "%", "recorded-value": 32}
{"substance": "771904 (antisense e[5mC]*e[5mC]*e[5mC]*eA*eA*d[5mC]*d[5mC]*d[5mC]*dA*dT*d[5mC]*dT*d[5mC]*d[5mC]*dA*e[5mC]*e[5mC]*eA*e[5mC]*e[5mC]) [compound 771904]", "measurement-unit": "%", "recorded-value": 0}
{"substance": "771720 (antisense e[5mC]*eA*eG*eG*e[5mC]*dA*dG*dA*dG*d[5mC]*dT*dA*dT*dG*d[5mC]*eT*eT*e[5mC]*eA*eA) [compound 771720]", "measurement-unit": "%", "recorded-value": 37}

Where these numbers come from: patent US10517889B2
